# assay-overview: Cell proliferation assay (MTT)
# Type: cell-based
# conditions-used: human; 1 μM activator; 3 days incubation; mean ± SEM (n = 6); read-out: LS174T cell viability (%)
recorded-endpoint: viability at 72 h, 1 μM
Value and unit, in that order.

INSERT INTO results (smiles_record, result_value) VALUES
  ('O=C(CCCC(=O)Nc1cnccc1-c1nnc(-c2ccncc2NC(=O)CCCC(=O)NCCOCCOCCOCCOCCOCCOCCOCCOCCOCCO)nn1)NCCOCCOCCOCCOCCOCCOCCOCCOCCOCCO', '93.9%'),
  ('Oc1cccnc1-c1nnc(-c2ncccc2O)nn1', '98.2%');

Then this compound:
Quick check: viability at 72 h, 1 μM of `O=C(CCCC(=O)Nc1cccnc1-c1nnc(-c2ncccc2NC(=O)CCCC(=O)NCCOCCOCCOCCOCCOCCOCCOCCOCCOCCO)nn1)NCCOCCOCCOCCOCCOCCOCCOCCOCCOCCO` ?
97%

----------
# assay-overview: Cell proliferation assay (MTT)
# Format: cell-based
# conditions-used: human; 0.1 μM activator; 3 days incubation; mean ± SEM (n = 6); read-out: LS174T cell viability (%)
recorded-endpoint: viability at 72 h, 0.1 μM (%)
Field format: number, assumed %, no unit text.

Answered examples (3):
INSERT INTO measurements (molecule, recorded_endpoint, result_value) VALUES
  ('O=C(CCCC(=O)Nc1cccnc1-c1nnc(-c2ncccc2NC(=O)CCCC(=O)NCCOCCOCCOCCOCCOCCOCCOCCOCCOCCO)nn1)NCCOCCOCCOCCOCCOCCOCCOCCOCCOCCO [2.14]', 'viability at 72 h, 0.1 μM', 104),
  ('Cc1nnc(C)nn1 [2.17, 3,6-bismethyl-tetrazine, reference compound]', 'viability at 72 h, 0.1 μM', 87.9),
  ('Oc1cccnc1-c1nnc(-c2ncccc2O)nn1 [2.7]', 'viability at 72 h, 0.1 μM', 91.5);

Endpoint output: viability at 72 h, 0.1 μM of c1cc(-c2nnc(-c3ccncc3)nn2)ccn1 [2.19, 3,6-bis(4-pyridinyl)-tetrazine, reference compound] . Value?
88.7

Query O=C(CCCC(=O)Nc1cnccc1-c1nnc(-c2ccncc2NC(=O)CCCC(=O)NCCOCCOCCOCCOCCOCCOCCOCCOCCOCCO)nn1)NCCOCCOCCOCCOCCOCCOCCOCCOCCOCCO [2.16] next
96.9

One more molecule: c1ccc(-c2nnc(-c3ccccn3)nn2)nc1 [2.18, 3,6-bis(2-pyridinyl)-tetrazine, reference compound]
101

How about Oc1cnccc1-c1nnc(-c2ccncc2O)nn1 [2.8] ?
98.4

----------
# System: ADC AVP0458-TCO-MMAE
# assay-overview: Triggered drug (MMAE) release from ADC in 50% mouse plasma, HPLC-SIM-MS
# conditions-used: 5 h; 50% mouse plasma, 37° C.
recorded-endpoint: MMAE release from ADC AVP0458-TCO-MMAE, Release (%)
Hi, when you answer, please include the unit after the number. Thanks!

Look over these answered cases.
INSERT INTO results (smiles_record, target_system, result_value) VALUES
  ('O=C(CCCC(=O)Nc1cccnc1-c1nnc(-c2ncccc2NC(=O)CCCC(=O)NCCOCCOCCOCCOCCOCCOCCOCCOCCOCCO)nn1)NCCOCCOCCOCCOCCOCCOCCOCCOCCOCCO', 'ADC AVP0458-TCO-MMAE', '49.9%'),
  ('Oc1cccnc1-c1nnc(-c2ncccc2O)nn1', 'ADC AVP0458-TCO-MMAE', '83.8%'),
  ('O=C(CCCC(=O)Nc1cnccc1-c1nnc(-c2ccncc2NC(=O)CCCC(=O)NCCOCCOCCOCCOCCOCCOCCOCCOCCOCCO)nn1)NCCOCCOCCOCCOCCOCCOCCOCCOCCOCCO', 'ADC AVP0458-TCO-MMAE', '82.8%');

Moving on to the next compound.
Find the measured MMAE release from ADC AVP0458-TCO-MMAE, Release (%): item `Oc1cnccc1-c1nnc(-c2ccncc2O)nn1` , target or system ADC AVP0458-TCO-MMAE.
93.6%
